molecular target: Full length DGKα (D21-10BG, SignalChem) (Homo sapiens, UniProt P23743); construct: Full length DGKα (D21-10BG, SignalChem); purchased SignalChem D21-10BG; assay: Biochemical DGK IC50 assay (ADP-Glo, lipid micelle substrate), DGKα; conditions: 1 hour preincubation, 1 hour reaction, room temperature
Sequence (P23743 whole entry): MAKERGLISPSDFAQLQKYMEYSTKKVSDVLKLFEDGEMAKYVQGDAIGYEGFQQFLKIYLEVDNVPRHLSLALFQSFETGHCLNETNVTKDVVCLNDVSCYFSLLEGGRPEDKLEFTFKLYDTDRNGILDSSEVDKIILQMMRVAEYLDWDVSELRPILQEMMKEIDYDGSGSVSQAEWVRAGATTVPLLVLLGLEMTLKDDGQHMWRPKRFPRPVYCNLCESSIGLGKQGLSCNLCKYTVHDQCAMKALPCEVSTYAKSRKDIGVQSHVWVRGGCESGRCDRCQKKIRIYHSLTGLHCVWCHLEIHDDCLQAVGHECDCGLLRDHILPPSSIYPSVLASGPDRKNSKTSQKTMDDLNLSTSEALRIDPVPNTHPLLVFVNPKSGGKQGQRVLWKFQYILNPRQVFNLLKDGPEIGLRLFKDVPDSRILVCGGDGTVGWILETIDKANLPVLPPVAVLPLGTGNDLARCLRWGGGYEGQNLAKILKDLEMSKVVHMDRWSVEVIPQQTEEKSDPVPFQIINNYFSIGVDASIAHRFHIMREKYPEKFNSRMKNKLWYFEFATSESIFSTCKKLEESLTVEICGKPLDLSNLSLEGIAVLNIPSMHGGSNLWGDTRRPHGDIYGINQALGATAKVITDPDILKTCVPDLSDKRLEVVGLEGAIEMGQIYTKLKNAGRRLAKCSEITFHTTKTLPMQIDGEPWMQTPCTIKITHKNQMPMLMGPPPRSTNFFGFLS
Provide the recorded IC50 for the entries that follow.

| compound | systemName | IC50 |
| --- | --- | --- |
| CCn1c(CC#N)nc2c(N3C[C@@H](C)N(C(C)c4nc5c(cc4F)OCC(C)(C)O5)C[C@@H]3C)nc(=O)n(C)c21 (single isomer, unassigned) [Compound A161a] | Full length DGKα (D21-10BG, SignalChem) (Homo sapiens, UniProt P23743) | 71.8 µM |
| CCn1c(CC#N)nc2c(N3C[C@@H](C)N(C(C)c4ccc5c(c4)C(C)(C)N(C)C5=O)C[C@@H]3C)nc(=O)n(C)c21 (stereo partly drawn) [Compound A84] | Full length DGKα (D21-10BG, SignalChem) (Homo sapiens, UniProt P23743) | > 150 µM |

Next compound, IC50 to be filled in.
Req: Would you kindly share the measured IC50 for CCn1c(CC#N)nc2c(N3C[C@@H](C)N(C(C)c4ccc5c(c4F)OC(C)(C)CO5)C[C@@H]3C)nc(=O)n(C)c21 (stereo partly drawn) [Compound A71] ?
Resp: 124 µM

###

biological target: Full length DGKζ (in-house protein M1-V929) (Homo sapiens, UniProt Q13574); construct: His (N); TEV site (N); experiment: Biochemical DGK IC50 assay (ADP-Glo, lipid micelle substrate), DGKζ; settings: 1 hour preincubation, 1 hour reaction, room temperature
Sequence (Q13574 1-929 isoform Q13574-4): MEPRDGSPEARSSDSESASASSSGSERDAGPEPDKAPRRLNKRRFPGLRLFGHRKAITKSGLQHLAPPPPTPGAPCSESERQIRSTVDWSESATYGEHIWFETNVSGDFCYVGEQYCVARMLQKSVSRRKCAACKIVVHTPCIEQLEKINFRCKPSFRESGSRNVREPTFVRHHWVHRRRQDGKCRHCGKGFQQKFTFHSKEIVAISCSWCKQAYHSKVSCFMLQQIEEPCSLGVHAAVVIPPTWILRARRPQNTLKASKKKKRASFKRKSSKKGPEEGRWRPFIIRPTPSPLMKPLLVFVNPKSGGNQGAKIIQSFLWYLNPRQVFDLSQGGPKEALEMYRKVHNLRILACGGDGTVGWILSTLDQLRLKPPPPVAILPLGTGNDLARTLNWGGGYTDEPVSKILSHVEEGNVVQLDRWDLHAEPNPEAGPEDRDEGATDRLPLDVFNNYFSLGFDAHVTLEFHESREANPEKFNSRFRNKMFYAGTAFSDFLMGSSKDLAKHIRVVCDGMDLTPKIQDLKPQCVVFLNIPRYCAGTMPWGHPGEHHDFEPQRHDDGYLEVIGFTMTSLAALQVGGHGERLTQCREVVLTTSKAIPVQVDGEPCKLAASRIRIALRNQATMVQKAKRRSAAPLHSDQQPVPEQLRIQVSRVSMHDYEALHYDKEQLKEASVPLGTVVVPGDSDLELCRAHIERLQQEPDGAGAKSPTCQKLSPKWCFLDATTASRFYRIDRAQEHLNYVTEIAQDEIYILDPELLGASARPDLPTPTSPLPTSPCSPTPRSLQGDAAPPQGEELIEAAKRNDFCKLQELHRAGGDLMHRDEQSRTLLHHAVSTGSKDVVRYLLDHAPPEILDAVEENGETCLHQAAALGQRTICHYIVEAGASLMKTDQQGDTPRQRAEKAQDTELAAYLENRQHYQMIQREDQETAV
pIC50: −log10 of the molar value.
Returns true if the recorded pIC50 is greater than or equal to 7, and false otherwise.

| molecule | className |
| --- | --- |
| CC(c1ccc2nccnc2c1)N1C[C@H](C)N(c2cc(=O)n(C)c3c2nc(CC#N)n3C)C[C@H]1C (single isomer, unassigned) [Compound A1a] | true |
| Cc1ccc(C(C)N2C[C@H](C)N(c3c(F)c(=O)n(C)c4c3nc(CC#N)n4C)C[C@H]2C)c(C(F)(F)F)c1 (single isomer, unassigned) [Compound A15a] | false |
| Cc1ccc(C(C)N2C[C@H](C)N(c3nc(=O)n(C)c4c3nc(CC#N)n4C)C[C@H]2C)c(C(F)(F)F)c1 (single isomer, unassigned) [Compound A32a] | false |
| Cc1cnc2ccc(C(C)N3C[C@H](C)N(c4nc(=O)n(C)c5c4nc(CC#N)n5C)C[C@H]3C)cc2n1 (single isomer, unassigned) [Compound A49b] | false |
| CCn1c(CC#N)nc2c(N3C[C@@H](C)N(C(C)c4cccc(C5COC5)c4)C[C@@H]3C)nc(=O)n(C)c21 (stereo partly drawn) [Compound A127] | false |

Req: For this molecule, is measured pIC50 7 or higher? CCn1c(CC#N)nc2c(N3C[C@@H](C)N(C(C)c4ccc5c(c4)OC(C)(C)CC5)C[C@@H]3C)nc(=O)n(C)c21 (mixture of isomers) [Compound A94]
Resp: true

Req: Now give it for CCn1c(CC#N)nc2c(N3C[C@@H](C)N(C(C)c4ccc(C)cc4C(F)(F)F)C[C@@H]3C)nc(=O)n(C)c21 (single isomer, unassigned) [Compound A116b] too.
Resp: false

Req: Lookup CCn1c(CC#N)nc2c(N3C[C@@H](C)N(C(C)c4ccc5c(n4)C(C)(C)CO5)C[C@@H]3C)nc(=O)n(C)c21 (stereo partly drawn) [Compound A181]
Resp: true

Req: Would you kindly repeat that for CC(c1cccnc1C(F)(F)F)N1C[C@H](C)N(c2cc(=O)n(C)c3c2nc(CC#N)n3C)C[C@H]1C (single isomer, unassigned) [Compound A7b] ?
Resp: true

Req: Moving on to the next molecule: CCn1c(CC#N)nc2c(N3C[C@@H](C)N(C(C)c4nc5c(cc4Cl)OCC(C)(C)O5)C[C@@H]3C)nc(=O)n(C)c21 (stereo partly drawn) [Compound A160]
Resp: false

Req: Next entry: CCn1c(CC#N)nc2c(N3C[C@@H](C)N(C(C)c4ccc5nc(C)sc5c4)C[C@@H]3C)nc(=O)n(C)c21 (single isomer, unassigned) [Compound A56b]
Resp: true

###

Exercise: state measured IC50 for each of the compounds provided.
target: Full length DGKα (D21-10BG, SignalChem) (Homo sapiens, UniProt P23743); construct: Full length DGKα (D21-10BG, SignalChem); purchased SignalChem D21-10BG; test: Biochemical DGK IC50 assay (ADP-Glo, lipid micelle substrate), DGKα; conditions: 1 hour preincubation, 1 hour reaction, room temperature
Answers are plain numbers, in µM.

Worked examples follow.
| compound | systemName | measurement |
| --- | --- | --- |
| CC(c1ccc2c(c1)OC(C)(C)O2)N1C[C@H](C)N(c2nc(=O)n(C)c3c2nc(CC#N)n3C)C[C@H]1C (single isomer, unassigned) [Compound A98a] | Full length DGKα (D21-10BG, SignalChem) (Homo sapiens, UniProt P23743) | 14.3 |
| CC(c1cc(F)c2c(n1)OC(C)(C)CO2)N1C[C@H](C)N(c2nc(=O)n(C)c3c2nc(CC#N)n3C)C[C@H]1C (stereo partly drawn) | Full length DGKα (D21-10BG, SignalChem) (Homo sapiens, UniProt P23743) | 125 |
| CCn1c(CC#N)nc2c(N3C[C@@H](C)N(C(C)c4ccc(C(F)(F)F)c(C)c4)C[C@@H]3C)nc(=O)n(C)c21 (stereo partly drawn) | Full length DGKα (D21-10BG, SignalChem) (Homo sapiens, UniProt P23743) | 48.7 |
| CCn1c(CC#N)nc2c(N3C[C@@H](C)N(C(C)c4ccc5c(c4)OC(C)(C)CC5)C[C@@H]3C)nc(=O)n(C)c21 (single isomer, unassigned) [Compound A94a] | Full length DGKα (D21-10BG, SignalChem) (Homo sapiens, UniProt P23743) | 16.6 |
| Cc1cnc2ccc(C(C)N3C[C@H](C)N(c4c(F)c(=O)n(C)c5c4nc(CC#N)n5C)C[C@H]3C)cc2n1 (single isomer, unassigned) [Compound A23a] | Full length DGKα (D21-10BG, SignalChem) (Homo sapiens, UniProt P23743) | 63.2 |

Okay, next one:
Req: // lookup IC50 | system=Full length DGKα (D21-10BG, SignalChem) (Homo sapiens, UniProt P23743) | key= Cc1cccc(C(C)N2C[C@H](C)N(c3c(F)c(=O)n(C)c4c3nc(CC#N)n4C)C[C@H]2C)c1C(F)(F)F (single isomer, unassigned) [Compound A17a]
Resp: 1.46

###

molecular target: Full length DGKζ (in-house protein M1-V929) (Homo sapiens); construct: His (N); TEV site (N); made in house; host or cells: Sf9 insect cells (Bac-to-Bac baculovirus); test: Biochemical DGK IC50 assay (ADP-Glo, lipid micelle substrate), DGKζ; conditions: 1 hour preincubation, 1 hour reaction, room temperature
property: pIC50
Answers are plain numbers, as −log10 of the molar value.

For each of the compounds below, state pIC50.
1. CC[C@H]1CN(C(C)c2ccc3ncc(C)nc3c2)[C@H](CC)CN1c1nc(=O)n(C)c2c1nc(CC#N)n2C (single isomer, unassigned) [Compound A51b]
2. CC[C@@H]1CN(c2nc(=O)n(C)c3c2nc(CC#N)n3C)[C@@H](C)CN1C(C)c1ccc2c(c1)OC(C)(C)CO2 (single isomer, unassigned) [Compound A63a]
3. CC[C@H]1CN(C(C)c2ccc(F)cc2C(F)(F)F)[C@H](CC)CN1c1nc(=O)n(C)c2c1nc(CC#N)n2C (single isomer, unassigned) [Compound A34b]
4. CC(c1ccc(F)cc1C(F)(F)F)N1C[C@H](C)N(c2nc(=O)n(C)c3c2nc(CC#N)n3C)C[C@H]1C (single isomer, unassigned) [Compound A33b]

Resp:
[6.58, 8.70, 8.05, 8.52]

Hey, can you go through the list below and give me pIC50 for every item?
1. CC(c1ccc2c(c1)OC(C)(C)O2)N1C[C@H](C)N(c2nc(=O)n(C)c3c2nc(CC#N)n3CC(F)F)C[C@H]1C (stereo partly drawn)
2. CCc1nc2cc(C(C)N3C[C@H](C)N(c4nc(=O)n(C)c5c4nc(CC#N)n5CC)C[C@H]3C)ccc2s1 (single isomer, unassigned) [Compound A95b]
3. CC[C@@H]1CN(c2nc(=O)n(CC)c3c2nc(CC#N)n3C)[C@@H](C)CN1C(C)c1ccc2c(c1)OC(C)(C)CO2 (single isomer, unassigned) [Compound A66a]
4. CC(c1ccc(F)cc1C(F)(F)F)N1C[C@H](C)N(c2cc(=O)n(C)c3[nH]c(CC#N)nc23)C[C@H]1C (single isomer, unassigned) [Compound A9a]
5. CCn1c(CC#N)nc2c(N3C[C@@H](C)N(C(C)c4ccc5ncc(C(F)(F)F)nc5c4)C[C@@H]3C)nc(=O)n(C)c21 (stereo partly drawn)

Resp:
[7.85, 6.26, 6.66, 5.07, 7.43]
